These data points were gathered from ChEMBL document CHEMBL3580562.

# protocol: Oral bioavailability in dog at 10 mg/kg
# Format: ADME, organism-based, Canis lupus familiaris
# experimentalConditions: in vivo
parameter: bioavailability (%)
Express it in %; write the number only.

Problem: May I ask what bioavailability has been recorded for CC/C(=C(/c1ccc(/C=C/C(=O)O)cc1)c1ccc2[nH]ncc2c1)c1ccc(F)cc1Cl ?
Solution: 61

###

# protocol: Clearance in cynomolgus monkey at 3 mg/kg, iv and 10 mg/kg, po
# Type: ADME, organism-based, Macaca fascicularis
# experimentalConditions: in vivo
parameter: clearance (mL/min/kg)
Give a bare numeral; the unit mL/min/kg is implied.

Problem: Sample CC/C(=C(/c1ccc(/C=C/C(=O)O)cc1)c1ccc2[nH]ncc2c1)c1ccc(F)cc1Cl — what was its clearance?
Solution: 7
